All figures here come from ChEMBL document CHEMBL1149528.

For each entry below, report its Ki value.
Molecular target: Kappa-type opioid receptor (Homo sapiens)
Sequence (P41145 whole entry): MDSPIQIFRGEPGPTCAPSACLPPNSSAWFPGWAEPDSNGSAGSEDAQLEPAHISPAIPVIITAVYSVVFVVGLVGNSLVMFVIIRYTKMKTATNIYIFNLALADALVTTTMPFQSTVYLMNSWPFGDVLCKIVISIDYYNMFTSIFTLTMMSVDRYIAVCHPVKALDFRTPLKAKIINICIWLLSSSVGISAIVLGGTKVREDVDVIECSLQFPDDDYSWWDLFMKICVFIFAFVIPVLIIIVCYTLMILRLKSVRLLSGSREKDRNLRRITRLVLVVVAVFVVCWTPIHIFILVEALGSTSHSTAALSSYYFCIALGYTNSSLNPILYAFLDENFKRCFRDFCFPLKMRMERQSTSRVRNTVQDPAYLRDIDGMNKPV

Query (compound): O=C(OC1CCCCC1)N1CCC(c2ccccc2)(c2nccn2Cc2ccccc2)CC1 ; field requested: Ki
0.121 µM

What about CCOC(=O)N1CCC(c2ccccc2)(c2nccn2Cc2ccc(O)cc2)CC1 ?
0.108 µM

What about Cc1cc(C)cc(C(=O)N2CCC(c3ccccc3)(c3nccn3Cc3ccccc3)CC2)c1 ?
0.284 µM

What about CCCCOC(=O)N1CCC(c2ccccc2)(c2nccn2Cc2ccccc2)CC1 ?
0.188 µM

What about COCC(=O)N1CCC(c2ccccc2)(c2nccn2C(C)c2ccccc2)CC1 (centres undefined) ?
> 4.65 µM

What about CC(C)OC(=O)N1CCC(c2ccccc2)(c2nccn2Cc2ccccc2)CC1 ?
0.201 µM

What about CCOC(=O)N1CCC(c2ccccc2)(c2nccn2Cc2cccc(F)c2)CC1 ?
> 4.65 µM

What about CCOC(=O)N1CCC(c2ccccc2)(c2nccn2Cc2ccc3ccccc3c2)CC1 ?
3.12 µM

What about CC(C)(C)OC(=O)N1CCC(c2ccccc2)(c2nccn2Cc2ccccc2)CC1 ?
0.084 µM

What about O=C(OCc1ccccc1)N1CCC(c2ccccc2)(c2nccn2Cc2ccccc2)CC1 ?
0.121 µM

What about CCOC(=O)N1CCC(c2ccccc2)(c2nccn2C(C)c2ccccc2)CC1 (centres undefined) ?
0.062 µM

What about CCOC(=O)N1CCC(c2ccccc2)(c2nccn2Cc2cccc(OC)c2)CC1 ?
0.366 µM

What about CCCOC(=O)N1CCC(c2ccccc2)(c2nccn2Cc2ccccc2)CC1 ?
> 4.65 µM

What about CCOC(=O)N1CCC(c2ccccc2)(c2nccn2Cc2ccc(C(=O)OC)cc2)CC1 ?
0.025 µM

What about CC(c1ccccc1)n1ccnc1C1(c2ccccc2)CCN(C(=O)c2ccccc2)CC1 (centres undefined) ?
0.334 µM

What about CCOC(=O)N1CCC(c2ccccc2)(c2nccn2Cc2ccc(OC)cc2)CC1 ?
0.201 µM

What about CC(=O)N1CCC(c2ccccc2)(c2nccn2Cc2ccccc2)CC1 ?
1.01 µM

What about COCC(=O)N1CCC(c2ccccc2)(c2nccn2Cc2ccc(C(=O)OC)cc2)CC1 ?
0.065 µM

What about O=C(c1ccccc1)N1CCC(c2ccccc2)(c2nccn2Cc2ccccc2)CC1 ?
0.124 µM

###

Molecular target: Delta-type opioid receptor (Homo sapiens, UniProt P41143)
Assay: Displacement of [3H]DPDPE from cloned human delta opioid receptor
For each entry below, report its pKi value.
The meaning of pKi here: minus log10 of the concentration in molar units.

Query (molecule): CCN(CC)C(=O)c1ccc(Cn2ccnc2C2(c3ccccc3)CCN(C(=O)c3ccccc3)CC2)cc1 ; field requested: pKi
6.80

What about COC(=O)c1cccc(Cn2ccnc2C2(c3ccccc3)CCN(C(=O)c3ccccc3)CC2)c1 ?
7.07

What about CC(C)C(=O)N1CCC(c2ccccc2)(c2nccn2Cc2ccccc2)CC1 ?
7.32

What about CCOC(=O)N1CCC(c2ccccc2)(c2nccn2C/C=C/c2ccccc2)CC1 ?
6.55

What about O=C(C1CC1)N1CCC(c2ccccc2)(c2nccn2Cc2ccccc2)CC1 ?
7.64

What about Cc1cc(C)c(C(=O)N2CCC(c3ccccc3)(c3nccn3Cc3ccccc3)CC2)c(C)c1 ?
6.90

What about CCOC(=O)N1CCC(c2ccccc2)(c2nccn2Cc2ccc3ccccc3c2)CC1 ?
6.19

What about O=C(c1cc(C(F)(F)F)cc(C(F)(F)F)c1)N1CCC(c2ccccc2)(c2nccn2Cc2ccccc2)CC1 ?
7.54

What about CCOC(=O)N1CCC(c2ccccc2)(c2nccn2Cc2ccc(F)cc2)CC1 ?
7.29

What about CCOC(=O)N1CCC(c2ccccc2)(c2nccn2CC2CCCCC2)CC1 ?
6.83

What about CCOC(=O)N1CCC(c2ccccc2)(c2nccn2Cc2ccccn2)CC1 ?
6.76

What about O=C(OC1CCCCC1)N1CCC(c2ccccc2)(c2nccn2Cc2ccccc2)CC1 ?
8.13

###

For each entry below, report its pKi value.
Molecular target: Mu-type opioid receptor (Homo sapiens)
pKi: −log10 of the molar value.

Query (molecule): CCOC(=O)N1CCC(c2ccccc2)(c2nccn2Cc2ccc(F)cc2)CC1 ; field requested: pKi
< 6.33

What about CCC(=O)N1CCC(c2ccccc2)(c2nccn2Cc2ccccc2)CC1 ?
< 6.33

What about CC(C)OC(=O)N1CCC(c2ccccc2)(c2nccn2Cc2ccccc2)CC1 ?
< 6.33

What about CCOC(=O)N1CCC(c2ccccc2)(c2nccn2C(C)c2ccccc2)CC1 (centres undefined) ?
< 6.33

What about CC(=O)N1CCC(c2ccccc2)(c2nccn2Cc2ccccc2)CC1 ?
< 6.33

What about CC(c1ccccc1)n1ccnc1C1(c2ccccc2)CCN(C(=O)c2ccccc2)CC1 (centres undefined) ?
< 5.33

What about CCOC(=O)N1CCC(c2ccccc2)(c2nccn2Cc2ccc(O)cc2)CC1 ?
< 6.33

What about Cc1cc(C)c(C(=O)N2CCC(c3ccccc3)(c3nccn3Cc3ccccc3)CC2)c(C)c1 ?
< 5.33

What about Cc1cc(C)cc(C(=O)N2CCC(c3ccccc3)(c3nccn3Cc3ccccc3)CC2)c1 ?
< 6.33

What about COC(=O)c1cccc(Cn2ccnc2C2(c3ccccc3)CCN(C(=O)c3ccccc3)CC2)c1 ?
< 6.33

What about COCC(=O)N1CCC(c2ccccc2)(c2nccn2C(C)c2ccccc2)CC1 (centres undefined) ?
< 5.33

What about CCCOC(=O)N1CCC(c2ccccc2)(c2nccn2Cc2ccccc2)CC1 ?
< 6.33

What about CC(C)(C)OC(=O)N1CCC(c2ccccc2)(c2nccn2Cc2ccccc2)CC1 ?
< 6.33

What about CCOC(=O)N1CCC(c2ccccc2)(c2nccn2Cc2ccc(OC)cc2)CC1 ?
< 5.33

What about CC(C)C(=O)N1CCC(c2ccccc2)(c2nccn2Cc2ccccc2)CC1 ?
< 6.33

What about COC(=O)N1CCC(c2ccccc2)(c2nccn2Cc2ccccc2)CC1 ?
< 5.33

What about CCOC(=O)N1CCC(c2ccccc2)(c2nccn2Cc2cccc(OC)c2)CC1 ?
< 5.33

What about CCOC(=O)N1CCC(c2ccccc2)(c2nccn2Cc2ccc(C(=O)OC)cc2)CC1 ?
< 6.33

What about COCC(=O)N1CCC(c2ccccc2)(c2nccn2Cc2ccccc2)CC1 ?
< 6.33

###

pKi: −log10 of the molar value.
Observed pKi, system Mu-type opioid receptor (Homo sapiens, UniProt P35372).

Query (molecule): CCOC(=O)N1CCC(c2ccccc2)(c2nccn2C/C=C/c2ccccc2)CC1 ; field requested: pKi
< 6.33

What about CCOC(=O)N1CCC(c2ccccc2)(c2nccn2Cc2ccccn2)CC1 ?
< 6.33

What about COCC(=O)N1CCC(c2ccccc2)(c2nccn2Cc2ccc(C(=O)OC)cc2)CC1 ?
< 5.33

What about CCOC(=O)N1CCC(c2ccccc2)(c2nccn2CC2CCCCC2)CC1 ?
< 6.33

What about O=C(OC1CCCCC1)N1CCC(c2ccccc2)(c2nccn2Cc2ccccc2)CC1 ?
< 6.33

What about O=C(OCc1ccccc1)N1CCC(c2ccccc2)(c2nccn2Cc2ccccc2)CC1 ?
< 6.33

What about CCCCOC(=O)N1CCC(c2ccccc2)(c2nccn2Cc2ccccc2)CC1 ?
< 6.33

What about CCN(CC)C(=O)c1ccc(Cn2ccnc2C2(c3ccccc3)CCN(C(=O)c3ccccc3)CC2)cc1 ?
< 5.33

What about O=C(c1ccccc1)N1CCC(c2ccccc2)(c2nccn2Cc2ccccc2)CC1 ?
< 5.33

What about O=C(C1CC1)N1CCC(c2ccccc2)(c2nccn2Cc2ccccc2)CC1 ?
< 6.33

###

Molecular target: Opioid receptors; mu & delta (Homo sapiens) (UniProt P41143+P35372)
Sequence (P35372 whole entry, looked up): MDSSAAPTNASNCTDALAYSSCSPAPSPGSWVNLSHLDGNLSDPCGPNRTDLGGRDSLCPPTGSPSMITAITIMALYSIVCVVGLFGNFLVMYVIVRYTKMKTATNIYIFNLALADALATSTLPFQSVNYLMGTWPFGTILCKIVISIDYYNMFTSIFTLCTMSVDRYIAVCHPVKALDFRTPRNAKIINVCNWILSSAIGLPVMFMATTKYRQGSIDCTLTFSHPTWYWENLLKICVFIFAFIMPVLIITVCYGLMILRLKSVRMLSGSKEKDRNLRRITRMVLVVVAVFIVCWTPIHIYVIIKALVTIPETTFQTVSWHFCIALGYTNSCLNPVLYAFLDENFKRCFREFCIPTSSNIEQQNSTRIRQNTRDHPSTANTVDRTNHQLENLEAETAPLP
Sequence (P41143 whole entry, looked up): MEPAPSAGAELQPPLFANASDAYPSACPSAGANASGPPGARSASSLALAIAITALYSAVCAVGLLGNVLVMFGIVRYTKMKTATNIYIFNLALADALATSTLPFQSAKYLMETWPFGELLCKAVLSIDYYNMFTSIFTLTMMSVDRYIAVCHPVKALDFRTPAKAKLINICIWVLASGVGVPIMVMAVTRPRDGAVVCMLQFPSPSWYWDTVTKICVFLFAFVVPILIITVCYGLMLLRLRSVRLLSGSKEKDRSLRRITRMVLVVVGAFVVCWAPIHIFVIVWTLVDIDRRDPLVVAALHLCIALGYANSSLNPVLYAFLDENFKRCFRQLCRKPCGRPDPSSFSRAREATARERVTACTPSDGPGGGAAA
Test: Selectivity for delta opioid receptor over mu opioid receptor
Type: protein assay
For each entry below, report its Ratio Ki value.

Query (molecule): CCOC(=O)N1CCC(c2ccccc2)(c2nccn2Cc2ccccn2)CC1 ; field requested: Ratio Ki
> 2.7

What about CCOC(=O)N1CCC(c2ccccc2)(c2nccn2C/C=C/c2ccccc2)CC1 ?
> 1.6

What about CCOC(=O)N1CCC(c2ccccc2)(c2nccn2CC2CCCCC2)CC1 ?
> 3.2

What about COC(=O)c1cccc(Cn2ccnc2C2(c3ccccc3)CCN(C(=O)c3ccccc3)CC2)c1 ?
> 5.5

What about O=C(OC1CCCCC1)N1CCC(c2ccccc2)(c2nccn2Cc2ccccc2)CC1 ?
> 63

What about CCN(CC)C(=O)c1ccc(Cn2ccnc2C2(c3ccccc3)CCN(C(=O)c3ccccc3)CC2)cc1 ?
> 29

What about CCOC(=O)N1CCC(c2ccccc2)(c2nccn2Cc2ccc3ccccc3c2)CC1 ?
> 0.7

What about CC(C)C(=O)N1CCC(c2ccccc2)(c2nccn2Cc2ccccc2)CC1 ?
> 10

What about O=C(c1cc(C(F)(F)F)cc(C(F)(F)F)c1)N1CCC(c2ccccc2)(c2nccn2Cc2ccccc2)CC1 ?
> 16

What about O=C(C1CC1)N1CCC(c2ccccc2)(c2nccn2Cc2ccccc2)CC1 ?
> 20

What about CCOC(=O)N1CCC(c2ccccc2)(c2nccn2Cc2ccc(F)cc2)CC1 ?
> 6.5

What about Cc1cc(C)c(C(=O)N2CCC(c3ccccc3)(c3nccn3Cc3ccccc3)CC2)c(C)c1 ?
> 37
